test system: human GPR120 (Homo sapiens, UniProt Q5NUL3)
Construct: expressed in transfected cells; host or cells: CHO-k1
Sequence (Q5NUL3 whole entry): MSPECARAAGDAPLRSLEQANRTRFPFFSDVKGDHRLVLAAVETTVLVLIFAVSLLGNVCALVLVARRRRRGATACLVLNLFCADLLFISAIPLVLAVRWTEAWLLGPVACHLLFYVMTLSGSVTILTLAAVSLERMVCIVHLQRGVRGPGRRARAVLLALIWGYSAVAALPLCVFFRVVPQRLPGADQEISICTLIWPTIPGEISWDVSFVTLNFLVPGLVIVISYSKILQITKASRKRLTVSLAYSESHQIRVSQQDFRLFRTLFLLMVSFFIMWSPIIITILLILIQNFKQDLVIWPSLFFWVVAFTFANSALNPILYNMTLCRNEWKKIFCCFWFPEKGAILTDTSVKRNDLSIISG
method: In vitro Ca2+ mobilization, CHO-k1 cells stably expressing human GPR120
Assay type: cell-based
conditions used: intracellular calcium, CHO-k1 cells expressing human GPR120; read-out: Ca2+ hGPR120 AC50
Experimental: GPR120/40 Activation: In Vitro Ca^2+ Mobilization The activation of GPR120/40 by all compounds was determined by measuring changes in intracellular calcium levels using a Ca^2+ sensitive fluorescent dye. The experiments were performed using CHO-k1 cells stably expressing the human GPR120 or GPR40. […] Cell were treated with test compounds and controls at 10, 30 and 60 μM. The kinetic response was monitored over a period of 7 minutes (using FLIPRTETRA system). […]
Note to self: AC50 under 10 µM means yes, ties and anything higher get no.

> print(dat)
                            molecule.smiles                               test.system  assigned.category
1  Cc1cc(Oc2ccccc2)cc(C)c1NS(=O)(=O)c1cccc(CCCCCCC(=O)O)c1  human GPR120 (Homo sapiens, UniProt Q5NUL3)                 no
2  Cc1n[nH]c(C)c1NS(=O)(=O)c1cccc(CCCCCCC(=O)O)c1  human GPR120 (Homo sapiens, UniProt Q5NUL3)                 no
3  COc1cc(C)c(NS(=O)(=O)c2cccc(CCCCCCC(=O)O)c2)c(C)c1  human GPR120 (Homo sapiens, UniProt Q5NUL3)                 no
4  Cc1cc(F)cc(C)c1NS(=O)(=O)c1cccc(CCCCCCC(=O)O)c1  human GPR120 (Homo sapiens, UniProt Q5NUL3)                yes
